system: Angiostrongylus cantonensis infective third-stage (L3) larvae; experiment: Antiparasitic assay with A. cantonensis L3 larvae (motility); type: cell-based; conditions: infective third-stage (L3) larvae, 24 h, 21 °C, immobility; mean ± SD, three independent experiments; read-out: A. cantonensis EC50, L3
pEC50: −log10 of the molar value.
assayReadout: pEC50

* OC1OCC(Cc2ccc3c(c2)OCO3)C1Cc1ccc2c(c1)OCO2 (stereo not shown) | 4.82

----------
assay: Cytotoxicity assay (MTT), HaCaT cells; assay type: cell-based, human; conditions: human; HaCaT cells, MTT; 48 h exposure per figure legend (method: 24 h); read-out: mammalian cells CC50, human
assayReadout: CC50 at 48 h

• CCCSc1ccc2nc(NC(=O)OC)[nH]c2c1 [albendazole, reference compound] = > 200 µM

----------
experiment: Cytotoxicity assay (MTT), Vero cells; assay type: cell-based, monkey; settings: monkey, Vero cells (monkey kidney epithelial cells, ATCC CCL-81); Vero cells, MTT; 48 h exposure per figure legend (method: 24 h); read-out: mammalian cells CC50, monkey
assayReadout: CC50 at 48 h

* OC1OCC(Cc2ccc3c(c2)OCO3)C1Cc1ccc2c(c1)OCO2 (stereo not shown) | > 200 µM
